Target: mouse TMEM16A mutant R515A (Mus musculus, UniProt Q8BHY3, R515A)
Construct: expressed in transfected cells; host or cells: HEK293T
Sequence (Q8BHY3 whole entry R515A): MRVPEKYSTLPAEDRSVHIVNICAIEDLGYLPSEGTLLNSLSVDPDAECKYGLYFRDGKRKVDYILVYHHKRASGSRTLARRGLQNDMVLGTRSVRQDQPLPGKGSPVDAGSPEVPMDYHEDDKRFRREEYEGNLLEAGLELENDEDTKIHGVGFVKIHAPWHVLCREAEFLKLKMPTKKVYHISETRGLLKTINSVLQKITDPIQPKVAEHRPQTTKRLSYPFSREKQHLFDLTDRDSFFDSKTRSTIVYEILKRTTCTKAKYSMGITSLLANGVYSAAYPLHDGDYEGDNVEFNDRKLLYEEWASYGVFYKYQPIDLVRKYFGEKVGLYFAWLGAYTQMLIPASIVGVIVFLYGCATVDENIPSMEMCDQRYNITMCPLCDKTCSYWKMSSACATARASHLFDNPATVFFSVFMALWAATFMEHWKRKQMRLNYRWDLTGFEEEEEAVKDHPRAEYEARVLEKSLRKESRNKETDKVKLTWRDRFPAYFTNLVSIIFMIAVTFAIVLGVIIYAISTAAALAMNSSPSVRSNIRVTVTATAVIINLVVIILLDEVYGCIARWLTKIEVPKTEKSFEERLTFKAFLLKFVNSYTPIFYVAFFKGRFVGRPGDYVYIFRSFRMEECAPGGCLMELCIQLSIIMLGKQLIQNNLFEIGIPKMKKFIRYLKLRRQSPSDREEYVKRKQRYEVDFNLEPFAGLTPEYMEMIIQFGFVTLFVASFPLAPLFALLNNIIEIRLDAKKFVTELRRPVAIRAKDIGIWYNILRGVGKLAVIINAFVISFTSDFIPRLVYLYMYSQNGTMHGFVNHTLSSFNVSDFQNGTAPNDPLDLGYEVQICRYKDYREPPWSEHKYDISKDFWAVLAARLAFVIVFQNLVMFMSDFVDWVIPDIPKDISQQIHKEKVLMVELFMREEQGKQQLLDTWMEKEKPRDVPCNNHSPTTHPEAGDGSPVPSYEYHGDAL
Assay: Inside-out patch recording of 1PBC block, mutant R515A
Assay type: cell-based
Details: 100 mV; 4 µM Ca2+
Experimental: HEK293T cells (ATCC CRL-1573) were maintained in Dulbecco’s modified Eagle’s medium (DMEM; Sigma-Aldrich) supplemented with 10 U ml^−1 penicillin, 0.1 mg ml^−1 streptomycin (Sigma-Aldrich), 2 mM L-glutamine (Sigma-Aldrich), and 10% FBS (Sigma-Aldrich) in a humidified atmosphere containing 5% CO2 at 37 °C. […]
readout.label: pIC50
Lab note — pIC50 values are minus log10 of concentrations in M.

I have this molecule here, N#Cc1c(C(F)(F)F)cc(O)n2c1nc1ccccc12 , and I need its recorded pIC50.
4.05
